Molecular target: Adenosine receptor A1 (Homo sapiens)
Assay: Percent change in cAMP content of CHO (Chinese hamster ovary) cells expressing human Adenosine A1 receptor at 10 uM
Type: functional, cell-based
Metric: Change (%)

• Cc1sc(N)c(C(=O)c2ccc(I)c3ccccc23)c1C = -63
• Nc1sc2c(c1C(=O)c1cccc3ccccc13)CCC2 = -60
• Nc1sc2c(c1C(=O)c1ccc3ccccc3c1)CCN(Cc1ccccc1)C2 = -60

###

Target: Adenosine receptor A1 (Homo sapiens) (UniProt P30542)
Sequence (P30542 whole entry): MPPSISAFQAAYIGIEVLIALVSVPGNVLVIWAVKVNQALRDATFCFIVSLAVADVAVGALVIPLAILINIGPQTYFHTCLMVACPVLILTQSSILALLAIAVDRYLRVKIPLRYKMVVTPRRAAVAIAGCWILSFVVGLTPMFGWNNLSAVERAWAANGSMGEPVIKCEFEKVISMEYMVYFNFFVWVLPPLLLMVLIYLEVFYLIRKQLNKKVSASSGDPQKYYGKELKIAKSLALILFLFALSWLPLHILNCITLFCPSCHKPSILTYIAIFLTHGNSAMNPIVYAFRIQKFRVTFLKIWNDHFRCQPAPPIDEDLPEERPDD
Test: Percent change in cAMP content of CHO (Chinese hamster ovary) cells expressing human Adenosine A1 receptor at 1 uM
Format: functional, cell-based
Metric: Change (%)

[I] Nc1sc2c(c1C(=O)c1ccc3ccccc3c1)CCC2
[II] COc1ccc(C(=O)c2c(N)sc3c2CCC3)c2ccccc12
[III] Cc1sc(N)c(C(=O)c2ccc(Cl)c3ccccc23)c1C
Problem: Give the ascending ranking of the items by reported Change. Provide the labels, sequenced as the question asks.
Solution: III, I, II
